molecular target: Human fibrinogen receptor (αIIbβ3) (Homo sapiens, UniProt P05106+P08514); construct: Human fibrinogen receptor (αIIbβ3) was purified from outdated platelets; assay: Purified IIb/IIIa receptor assay (solid phase receptor assay, competition with biotinylated vitronectin); conditions: purified receptor from outdated platelets; 1 nM biotinylated vitronectin; highest concentration tested 1.0 x 10^-4 M
Sequence (P08514 32-887 limits assumed): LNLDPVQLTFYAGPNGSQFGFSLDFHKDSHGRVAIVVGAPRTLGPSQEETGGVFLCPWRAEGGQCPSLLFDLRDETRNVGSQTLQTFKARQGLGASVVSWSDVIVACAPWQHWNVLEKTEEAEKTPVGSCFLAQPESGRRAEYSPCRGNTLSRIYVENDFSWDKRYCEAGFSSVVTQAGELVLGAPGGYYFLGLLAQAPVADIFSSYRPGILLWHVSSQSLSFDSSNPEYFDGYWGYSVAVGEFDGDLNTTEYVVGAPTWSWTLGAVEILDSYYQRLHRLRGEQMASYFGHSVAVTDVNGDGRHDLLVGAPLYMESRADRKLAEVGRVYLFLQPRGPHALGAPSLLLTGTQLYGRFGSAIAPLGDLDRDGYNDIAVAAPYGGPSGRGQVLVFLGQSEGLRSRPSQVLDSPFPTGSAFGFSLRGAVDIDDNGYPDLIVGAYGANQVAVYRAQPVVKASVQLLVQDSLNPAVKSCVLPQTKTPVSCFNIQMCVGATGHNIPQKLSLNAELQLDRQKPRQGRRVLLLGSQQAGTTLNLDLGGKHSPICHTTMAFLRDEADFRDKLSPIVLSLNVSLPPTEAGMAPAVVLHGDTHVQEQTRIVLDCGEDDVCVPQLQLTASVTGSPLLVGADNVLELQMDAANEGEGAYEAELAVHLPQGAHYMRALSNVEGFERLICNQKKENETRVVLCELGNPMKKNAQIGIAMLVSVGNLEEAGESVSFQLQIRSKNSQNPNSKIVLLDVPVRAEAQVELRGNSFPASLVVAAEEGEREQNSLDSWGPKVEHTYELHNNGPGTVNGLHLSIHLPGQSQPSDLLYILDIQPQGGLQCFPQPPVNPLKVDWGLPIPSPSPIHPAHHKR
Sequence (P08514 891-1039 limits assumed): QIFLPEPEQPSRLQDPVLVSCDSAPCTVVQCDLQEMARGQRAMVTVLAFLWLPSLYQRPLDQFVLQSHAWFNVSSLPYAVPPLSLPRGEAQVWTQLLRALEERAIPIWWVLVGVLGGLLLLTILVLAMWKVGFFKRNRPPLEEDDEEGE
Sequence (P05106 27-788): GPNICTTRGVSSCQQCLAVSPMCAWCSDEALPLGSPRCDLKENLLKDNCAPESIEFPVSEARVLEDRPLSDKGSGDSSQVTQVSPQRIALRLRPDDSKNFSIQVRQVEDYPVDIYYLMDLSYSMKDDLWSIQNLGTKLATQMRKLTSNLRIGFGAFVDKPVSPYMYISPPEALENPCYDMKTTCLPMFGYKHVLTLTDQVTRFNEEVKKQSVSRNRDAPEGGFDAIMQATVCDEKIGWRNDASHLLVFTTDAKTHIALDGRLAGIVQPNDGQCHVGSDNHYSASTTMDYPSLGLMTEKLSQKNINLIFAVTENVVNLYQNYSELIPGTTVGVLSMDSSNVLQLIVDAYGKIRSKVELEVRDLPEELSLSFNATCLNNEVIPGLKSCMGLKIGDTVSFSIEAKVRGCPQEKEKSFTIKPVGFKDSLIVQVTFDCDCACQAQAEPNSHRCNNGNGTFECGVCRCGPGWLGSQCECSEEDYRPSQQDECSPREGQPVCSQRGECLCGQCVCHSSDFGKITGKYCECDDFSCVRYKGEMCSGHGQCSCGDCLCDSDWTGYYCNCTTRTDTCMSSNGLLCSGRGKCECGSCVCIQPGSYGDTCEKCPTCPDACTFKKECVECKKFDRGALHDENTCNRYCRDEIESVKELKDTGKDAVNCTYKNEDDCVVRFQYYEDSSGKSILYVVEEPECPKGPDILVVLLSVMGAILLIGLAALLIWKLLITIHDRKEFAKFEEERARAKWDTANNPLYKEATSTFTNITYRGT
Structures can show the parent of a compound that is named as a salt.
reportedProperty: pIC50
Please treat pIC50 as minus the base-10 logarithm of the molar concentration.

* CCOC(=O)NC(Cc1ccc(NC(=O)c2cccc(NC(=N)N)c2)cc1)C(=O)O (stereo not drawn) [Example 49, trifluoroacetate salt] | 7.50

Answer with the recorded pIC50 for the molecule listed here: N=C(N)Nc1cccc(NC(=O)Cc2ccc(OCC(=O)O)cc2)c1 [Example 84, trifluoroacetate salt]
6.31

For the molecule N=C(N)Nc1cccc(C(=O)NCCc2ccc(CCC(=O)O)cc2)c1 [Example 59, trifluoroacetate salt] , give its reported pIC50.
6.32

Report pIC50, nothing else, for this molecule: N=C(N)Nc1cccc(C(=O)Nc2ccc(CC(NC(=O)c3ccccc3)C(=O)O)cc2)c1 (stereo not drawn) [Example 47, trifluoroacetate salt]
7.29

Note down pIC50 recorded for CCOC(=O)C(Cc1ccc(NC(=O)c2cccc(NC(=N)N)c2)cc1)NC(C)=O (stereo not drawn) [Example 34, trifluoroacetate salt]
5.66

Give pIC50 for the following molecule: N=C(N)Nc1cccc(C(=O)Nc2ccc(OC(C(=O)O)c3ccccc3)cc2)c1 (stereo not drawn) [Example 86, trifluoroacetate salt]
5.50
